EXPERIMENTAL_SYSTEM: ALK2 (Mus musculus, UniProt P37172)
Construct: endogenous in cells
Sequence (P37172 21-509): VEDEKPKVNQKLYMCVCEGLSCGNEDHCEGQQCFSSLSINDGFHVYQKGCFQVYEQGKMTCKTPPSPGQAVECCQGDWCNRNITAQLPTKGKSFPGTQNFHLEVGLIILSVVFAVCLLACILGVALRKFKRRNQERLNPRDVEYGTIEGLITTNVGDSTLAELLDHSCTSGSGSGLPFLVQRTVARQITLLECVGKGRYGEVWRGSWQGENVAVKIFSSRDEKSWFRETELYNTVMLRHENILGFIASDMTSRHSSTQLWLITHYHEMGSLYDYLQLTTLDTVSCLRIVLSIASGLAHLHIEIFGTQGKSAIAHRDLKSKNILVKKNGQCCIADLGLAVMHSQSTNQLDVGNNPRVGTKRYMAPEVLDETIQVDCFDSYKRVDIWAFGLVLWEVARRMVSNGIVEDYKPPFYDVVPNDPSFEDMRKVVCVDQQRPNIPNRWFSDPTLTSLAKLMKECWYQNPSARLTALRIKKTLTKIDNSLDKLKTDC
PROCEDURE_SUMMARY: Luciferase reporter gene assay for ALK2 activity (C2C12 BRE-Luc SMAD1/5/8 reporter, BMP6 agonist)
RUN_PARAMETERS: BMP6 50 ng/mL
pIC50: −log10 of the molar value.
METRIC_NAME: pIC50

> print(dat)
                                   molecule  value.observed
1  COc1cc2c(-c3cnn4cc(N5CCC(C)(N6CCN(C)CC6)CC5)cnc34)ccnc2cc1F            6.68
2  Cc1cc(-c2cnn3cc(N4CCC(N5CCNCC5)CC4)cnc23)c2ccccc2n1            7.43
3  COc1cc2c(-c3cnn4cc(N5CCC(N(C)C)CC5)cnc34)ccnc2cc1F            7.30
4  CN1CCN(C2CCN(c3cnc4c(-c5cnn6ccccc56)cnn4c3)CC2)CC1            6.48

P. COc1cc2c(-c3cnn4cc(N5CC(CC#N)(N6CCN(C)CC6)C5)cnc34)ccnc2cc1F
Q. COc1cc2c(-c3cnn4cc(N5CCC(N6CCOCC6)CC5)cnc34)ccnc2cc1F
R. Cc1cc(-c2cnn3cc(N4CCC(N5CCN(C)CC(F)(F)C5)CC4)cnc23)c2ccccc2n1
Query: Sort the 3 molecules by pIC50; largest first, smallest last. Output spec: labels arranged per the requested ranking.
Response: Q, P, R
(Q: 8.10, P: 7.89, R: 6.48)

I. Cc1cc(-c2cnn3cc(N4CC5(CC(N)C5)C4)cnc23)c2ccccc2n1
II. CCOc1ccc2nccc(-c3cnn4cc(N5CCC(N6CCN(C)CC6)CC5)cnc34)c2c1
Query: Dear colleague, could you let me know whether I or II has the lower recorded pIC50? Thanks. Answer = label.
Response: II
(II: 7.57, I: 7.89)

I. COc1cc2c(-c3cnn4cc(N5CCC(N6CCN(C)CC6)CC5)cnc34)ccnc2cc1F
II. Cc1cc(-c2cnn3cc(N4CCC(N5CCN(C)CC5)CC4)cnc23)c2ccc(F)cc2n1
Query: Dear colleague, could you let me know whether I or II has the lower recorded pIC50? Thanks. Answer = label.
Response: II

I. COc1cc(F)c2nccc(-c3cnn4cc(N5CCC(N6CCN(C)CC6)CC5)cnc34)c2c1
II. CC(=O)N1CCC(N2CCN(c3cnc4c(-c5cc(C)nc6ccccc56)cnn4c3)CC2)CC1
III. CCN1CCN(C2CCN(c3cnc4c(-c5ccnc6cc(F)c(OC)cc56)cnn4c3)CC2)CC1
Query: Write the entries in order, lowest recorded pIC50 first. Output spec: labels arranged per the requested ranking.
Response: II, III, I
(II: 6.65, III: 6.94, I: 7.85)

From: patent US20230000869A1
